- System: Mycobacterium tuberculosis Erdman (autoluminescent)
- EXPERIMENT_DESCRIPTION: Einf, fitted maximum growth inhibition of combination (fraction); higher = stronger maximal inhibition
- CONDITION: in vitro model: acidic pH 5.7; time point: constant (~7 days, model-specific)
Label Condition met when Einf >= 0.8; otherwise Condition not met.

Query: Dear colleague, could you confirm whether COc1c(N2C[C@@H]3CCCN[C@@H]3C2)c(F)cc2c(=O)c(C(=O)O)cn(C3CC3)c12 [moxifloxacin] + NC(=O)c1cnccn1 [pyrazinamide] has Einf at or above 0.8?
Response: Condition not met

Query: Could you tell me if the measured Einf of CC[C@@H](CO)NCCN[C@@H](CC)CO [ethambutol] + CO[C@H]1/C=C/O[C@@]2(C)Oc3c(C)c(O)c4c(O)c(c(/C=N/N5CCN(C6CCCC6)CC5)c(O)c4c3C2=O)NC(=O)/C(C)=C\C=C\[C@H](C)[C@H](O)[C@@H](C)[C@@H](O)[C@@H](C)[C@H](OC(C)=O)[C@@H]1C reaches 0.8 or more?
Response: Condition met

Query: Please tell me: is the compound COc1c(N2C[C@@H]3CCCN[C@@H]3C2)c(F)cc2c(=O)c(C(=O)O)cn(C3CC3)c12 [moxifloxacin] + O=[N+]([O-])c1cn2c(n1)OC[C@@H](OCc1ccc(OC(F)(F)F)cc1)C2 [pretomanid] at or over 0.8 in terms of Einf?
Response: Condition met

Query: Given NNC(=O)c1ccncc1 [isoniazid] + CO[C@H]1/C=C/O[C@@]2(C)Oc3c(C)c(O)c4c(O)c(c(/C=N/N5CCN(C)CC5)c(O)c4c3C2=O)NC(=O)/C(C)=C\C=C\[C@H](C)[C@H](O)[C@@H](C)[C@@H](O)[C@@H](C)[C@H](OC(C)=O)[C@@H]1C , state whether its Einf is at least 0.8.
Response: Condition met

Query: # check: Einf of COc1c(N2C[C@@H]3CCCN[C@@H]3C2)c(F)cc2c(=O)c(C(=O)O)cn(C3CC3)c12 [moxifloxacin] + CO[C@H]1/C=C/O[C@@]2(C)Oc3c(C)c(O)c4c(O)c(c(/C=N/N5CCN(C6CCCC6)CC5)c(O)c4c3C2=O)NC(=O)/C(C)=C\C=C\[C@H](C)[C@H](O)[C@@H](C)[C@@H](O)[C@@H](C)[C@H](OC(C)=O)[C@@H]1C [rifapentine] is greater than or equal to 0.8
Response: Condition not met

---

- System: Mycobacterium tuberculosis Erdman (autoluminescent)
- EXPERIMENT_DESCRIPTION: Einf, fitted maximum growth inhibition of three-drug combination (fraction); higher = stronger maximal inhibition
- CONDITION: in vitro model: cholesterol-high 0.2 mM; time point: terminal (~4-5 doublings, model-specific)
MEASURE_NAME: Einf
Give only the figure.

Query: Item under review: CC(C)/N=c1\cc2n(-c3ccc(Cl)cc3)c3ccccc3nc-2cc1Nc1ccc(Cl)cc1 [clofazimine] + CC[C@@H](CO)NCCN[C@@H](CC)CO [ethambutol] + NNC(=O)c1ccncc1 [isoniazid] . Reported Einf?
Response: 0.998

Query: Value lookup for Einf; key = CC[C@@H](CO)NCCN[C@@H](CC)CO [ethambutol] + NNC(=O)c1ccncc1 [isoniazid] + O=[N+]([O-])c1cn2c(n1)OC[C@@H](OCc1ccc(OC(F)(F)F)cc1)C2 [pretomanid]
Response: 0.996

Query: For the compound shown here, COc1nc2ccc(Br)cc2cc1[C@@H](c1ccccc1)[C@@](O)(CCN(C)C)c1cccc2ccccc12 [bedaquiline] + CC[C@@H](CO)NCCN[C@@H](CC)CO [ethambutol] + CO[C@H]1/C=C/O[C@@]2(C)Oc3c(C)c(O)c4c(O)c(c(/C=N/N5CCN(C)CC5)c(O)c4c3C2=O)NC(=O)/C(C)=C\C=C\[C@H](C)[C@H](O)[C@@H](C)[C@@H](O)[C@@H](C)[C@H](OC(C)=O)[C@@H]1C [rifampicin] , give the reported Einf.
Response: 0.999

Query: What value of measured Einf is listed for CC(C)/N=c1\cc2n(-c3ccc(Cl)cc3)c3ccccc3nc-2cc1Nc1ccc(Cl)cc1 [clofazimine] + O=[N+]([O-])c1cn2c(n1)OC[C@@H](OCc1ccc(OC(F)(F)F)cc1)C2 [pretomanid] + NC(=O)c1cnccn1 [pyrazinamide] ?
Response: 0.997

Query: Using the record for CC(C)/N=c1\cc2n(-c3ccc(Cl)cc3)c3ccccc3nc-2cc1Nc1ccc(Cl)cc1 [clofazimine] + CC[C@@H](CO)NCCN[C@@H](CC)CO [ethambutol] + O=[N+]([O-])c1cn2c(n1)OC[C@@H](OCc1ccc(OC(F)(F)F)cc1)C2 [pretomanid] , report its Einf.
Response: 0.994
